Target: c-Src SH2;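 further: peptide library displayed on the E. coli surface as eCPX fusions, selected cells deep-sequenced, score is each peptide's frequency after selection divided by its frequency in the input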
Test: SH2 binding enrichment of the phosphorylated peptide, bacterial display (enrichment ratio); higher = better substrate or ligand; peptides without Tyr show the background
assay.readout: SH2 binding enrichment
Note: the reply should be a number with no unit written.

Solved entries:
{"construct.sequence": "SPPPAYTPMSG [ERBB4_Y1056]", "SH2 binding enrichment": 0.92}
{"construct.sequence": "LTRDIYKNDFF [ROS1_Y2110_A2106T_YF]", "SH2 binding enrichment": 0.395}
{"construct.sequence": "DLAGRYYALRS [CKB_Y173_K177R]", "SH2 binding enrichment": 1.87}
{"construct.sequence": "SGPRHYTIAAL [TTR_Y125_R124H]", "SH2 binding enrichment": 1.35}
{"construct.sequence": "DKITQYVEEVK [STX2_Y49]", "SH2 binding enrichment": 0.555}

[in] Reported SH2 binding enrichment for LLREWYLPDPF [SIX3_Y225_Q227P_YF] : what is it?
[out] 0.863

[in] Reported SH2 binding enrichment for QFQEKYKQVEQ [HCN4_Y531_YF] : what is it?
[out] 0.603

[in] Reported SH2 binding enrichment for TLSGTYQYIIA [FOXL2_Y81_I80T] : what is it?
[out] 1.93

[in] Reported SH2 binding enrichment for CGTPDNIAPEI [PRKCG_Y521_Y521N] : what is it?
[out] 0.485

[in] Reported SH2 binding enrichment for DTMQTYNGNDE [TSPAN7_Y131_A127T] : what is it?
[out] 0.44

[in] Reported SH2 binding enrichment for TGQERYRAITS [RAB11B_Y73_A68T] : what is it?
[out] 0.485

[in] Reported SH2 binding enrichment for YPIDHYLGKEM [G6PD_Y202_R198P] : what is it?
[out] 0.434

---

Reported phosphorylation enrichment values follow for various sequences
Molecular target: EPHB1 (UniProt P54762)
Sequence (P54762 whole entry, looked up): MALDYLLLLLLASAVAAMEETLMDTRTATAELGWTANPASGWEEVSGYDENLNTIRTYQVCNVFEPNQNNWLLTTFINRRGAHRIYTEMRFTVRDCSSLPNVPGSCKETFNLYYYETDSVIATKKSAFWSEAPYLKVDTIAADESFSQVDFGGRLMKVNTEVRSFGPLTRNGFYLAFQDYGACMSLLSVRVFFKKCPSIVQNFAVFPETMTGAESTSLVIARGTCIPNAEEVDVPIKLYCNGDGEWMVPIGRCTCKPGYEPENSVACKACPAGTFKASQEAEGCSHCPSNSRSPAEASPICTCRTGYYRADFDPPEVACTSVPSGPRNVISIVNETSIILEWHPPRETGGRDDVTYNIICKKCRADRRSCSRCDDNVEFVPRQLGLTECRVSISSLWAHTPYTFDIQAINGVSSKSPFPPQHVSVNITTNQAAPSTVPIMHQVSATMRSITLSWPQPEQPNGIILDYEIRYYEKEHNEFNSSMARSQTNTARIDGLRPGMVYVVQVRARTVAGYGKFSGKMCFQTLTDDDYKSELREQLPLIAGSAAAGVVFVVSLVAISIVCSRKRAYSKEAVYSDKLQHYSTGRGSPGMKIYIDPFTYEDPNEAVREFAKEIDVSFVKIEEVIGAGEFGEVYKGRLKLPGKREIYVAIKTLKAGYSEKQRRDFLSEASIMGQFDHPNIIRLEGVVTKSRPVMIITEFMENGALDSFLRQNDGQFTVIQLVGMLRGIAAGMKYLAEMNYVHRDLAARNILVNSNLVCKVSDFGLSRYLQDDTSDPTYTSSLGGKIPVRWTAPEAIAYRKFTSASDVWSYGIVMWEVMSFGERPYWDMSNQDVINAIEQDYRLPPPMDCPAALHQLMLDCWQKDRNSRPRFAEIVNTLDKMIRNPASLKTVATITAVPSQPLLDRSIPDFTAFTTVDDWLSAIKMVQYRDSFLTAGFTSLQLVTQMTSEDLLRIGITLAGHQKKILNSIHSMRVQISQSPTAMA
Test: phosphorylation enrichment, bacterial display (enrichment ratio); higher = better substrate or ligand; peptides without Tyr show the background
Note: the reply should be a number with no unit written.

{"construct.sequence": "KVVQEYERVII [NPHS2_Y131]", "phosphorylation enrichment": 3.17}
{"construct.sequence": "SGSIHYSRVPR [GLB1_Y57]", "phosphorylation enrichment": 0.542}
{"construct.sequence": "PVQAPYQKVVA [HBB_Y131_A130P]", "phosphorylation enrichment": 0.543}
{"construct.sequence": "MAFDRYVAVCA [OR52J3_Y125]", "phosphorylation enrichment": 0.649}

[in] Reported phosphorylation enrichment for LKLKAYRFSIS [LCT_Y974_V971L] : what is it?
[out] 0.883

[in] Reported phosphorylation enrichment for TGQERYRAITS [RAB11B_Y73_A68T] : what is it?
[out] 0.322

[in] Reported phosphorylation enrichment for TRHDEYLEVTK [MAP1A_Y2217] : what is it?
[out] 0.464

---

Target: Fes (UniProt P07332)
Sequence (P07332 whole entry, looked up): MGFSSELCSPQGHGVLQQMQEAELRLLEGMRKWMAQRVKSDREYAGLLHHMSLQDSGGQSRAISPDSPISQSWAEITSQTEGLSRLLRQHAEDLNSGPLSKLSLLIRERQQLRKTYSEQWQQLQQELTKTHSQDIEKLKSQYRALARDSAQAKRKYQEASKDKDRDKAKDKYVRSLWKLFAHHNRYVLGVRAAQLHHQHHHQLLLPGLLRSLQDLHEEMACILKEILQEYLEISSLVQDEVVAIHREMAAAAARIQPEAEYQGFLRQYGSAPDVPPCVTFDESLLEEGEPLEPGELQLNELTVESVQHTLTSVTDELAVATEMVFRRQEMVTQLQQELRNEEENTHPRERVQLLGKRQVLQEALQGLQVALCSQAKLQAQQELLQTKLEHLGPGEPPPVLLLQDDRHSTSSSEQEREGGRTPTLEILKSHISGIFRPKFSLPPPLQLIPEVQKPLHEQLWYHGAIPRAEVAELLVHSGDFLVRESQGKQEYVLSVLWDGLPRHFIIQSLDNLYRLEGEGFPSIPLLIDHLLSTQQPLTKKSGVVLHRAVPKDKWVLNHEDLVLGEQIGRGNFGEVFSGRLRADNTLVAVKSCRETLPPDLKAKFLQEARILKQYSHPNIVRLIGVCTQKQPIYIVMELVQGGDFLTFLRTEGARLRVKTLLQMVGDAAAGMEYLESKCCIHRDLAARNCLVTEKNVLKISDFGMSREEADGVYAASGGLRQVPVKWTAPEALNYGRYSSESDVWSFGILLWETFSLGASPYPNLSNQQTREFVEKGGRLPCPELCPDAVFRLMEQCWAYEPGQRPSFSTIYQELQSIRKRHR
Assay: phosphorylation enrichment, bacterial display (enrichment ratio); higher = better substrate or ligand; peptides without Tyr show the background
# label = bin(measured phosphorylation enrichment), where bins are b0 = under 0.7, b1 = from 0.7 up to 1, b2 = 1 and over

Consider the worked cases shown below.
{"construct.sequence": "KVGNEYVNKGQ [MYH7_Y410_T412N]", "class.assignment": "b0"}
{"construct.sequence": "DTFDPYLDIAL [USP36_Y268_V271I_YF]", "class.assignment": "b2"}
{"construct.sequence": "LTYHMYADPNF [SOS1_Y618]", "class.assignment": "b2"}
{"construct.sequence": "LAGRYYALRSM [CKB_Y174_K177R]", "class.assignment": "b1"}
{"construct.sequence": "YRQLQYCPSVE [CTNND2_Y508]", "class.assignment": "b2"}

[in] Could you place VDGSLYETHPQ [HK1_Y417_K418E] in its proper category? Many thanks.
[out] b1

[in] Could you place VHNLDYFKMTT [FGFR3_Y647_K650M_YF] in its proper category? Many thanks.
[out] b0
